Source listed as PubChem BioAssay (NCI).

# Procedure Summary: NCI Yeast Anticancer Drug Screen. Data for the wt2 strain (AID 169);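 also: 0% = growth of vehicle-treated yeast cultures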
# Run Parameters: S. cerevisiae wt2 strain growth inhibition; at 3.7 µM; active compounds read high
Compounds without any hit were thinned out: in the full panel of roughly 79,000, 15% have a hit.

{"Molecule": "Cc1c2ccnc(C(=O)NCCN(C)C)c2cc2c3cc(O)ccc3n(C)c12", "Unit Info": "%", "growth inhibition": 2}
{"Molecule": "COc1cc2ccnc(-c3c4ccccc4c(N)c4c(OC)c(OC)ccc34)c2cc1OC", "Unit Info": "%", "growth inhibition": -2}
{"Molecule": "O=C1C=C(c2ccccc2)OC1(c1ccccc1)N1CCOCC1 (stereo not drawn)", "Unit Info": "%", "growth inhibition": -1}
{"Molecule": "C[C@@](O)(/C=C/[C@H]1CC=CC(=O)O1)[C@@H](C[C@@H](O)\\C=C/C=C\\C=C\\CO)OP(=O)(O)O", "Unit Info": "%", "growth inhibition": 19}
{"Molecule": "COC(=O)CC1CCc2c(ccc3ccccc23)C1(C)C(=O)OC (stereo not drawn)", "Unit Info": "%", "growth inhibition": -8}
{"Molecule": "CCCCCCCCCCCCCCCCCC(=O)NCCCN(C)C", "Unit Info": "%", "growth inhibition": -27}
{"Molecule": "CCc1c[n+]([O-])c(C)cc1[N+](=O)[O-]", "Unit Info": "%", "growth inhibition": 0}
{"Molecule": "Cc1ccc([N+]2=NC(c3ccccc3)=NN(c3ccccc3)C2)cc1", "Unit Info": "%", "growth inhibition": 4}

----------
# Procedure Summary: NCI Yeast Anticancer Drug Screen. Data for the sgs1 strain (AID 173);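 also: 0% = growth of vehicle-only control cultures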
# Run Parameters: S. cerevisiae sgs1 mutant, at 100.0 µM, active compounds read high
About 79,000 compounds went through this panel and 15% of them were active in at least one assay; those are over-represented in the sample as a whole.

{"Compound": "CCOC(=O)[C@H]1Nc2ccc(OC)cc2C2c3ccccc3CC21 (stereo partly drawn)", "growth inhibition [%]": 90}
{"Compound": "O=C1/C(=C/c2ccccc2)CCCC1CN1CCCCC1 (stereo not drawn)", "growth inhibition [%]": 91}
{"Compound": "Oc1ccc2ccccc2c1CCc1c(O)ccc2ccccc12", "growth inhibition [%]": 88}

----------
# Procedure Summary: NCI Yeast Anticancer Drug Screen. Data for the wt1 strain (AID 149);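 also: 0% = growth of vehicle-treated wt1 cultures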
# Run Parameters: S. cerevisiae wt1 strain (SPY 50644) growth inhibition; at 1.2 µM; active compounds read high
This is part of a sample that, as a whole, favours compounds with a hit. Of some 79,000 tested, about 15% had one in any assay.

{"Compound": "C=C1CC(CCCl)(c2ccccc2)OC1=O (stereo not drawn)", "Unit Info": "%", "growth inhibition": -13}
{"Compound": "COc1cc(O)c2c(c1O)C(=O)c1cc(C)ncc1C2=O", "Unit Info": "%", "growth inhibition": 6}
{"Compound": "C[C@]12CC[C@H](O)CC1=CC[C@@H]1C2CC[C@]2(C)C(=O)NC(=O)CC12 (stereo partly drawn)", "Unit Info": "%", "growth inhibition": -22}
{"Compound": "CC(=O)SC(C[N+](=O)[O-])c1ccccc1 (stereo not drawn)", "Unit Info": "%", "growth inhibition": 0}
{"Compound": "CCCCCCSc1ncnc2[nH]ncc12", "Unit Info": "%", "growth inhibition": -1}
{"Compound": "CCCC/C=C/C(C)(C(=O)OCC)C(=O)OCC", "Unit Info": "%", "growth inhibition": -5}
{"Compound": "Cc1ccc([N+]2=NC(c3ccccc3)=NN(c3ccccc3)C2)cc1", "Unit Info": "%", "growth inhibition": 1}
{"Compound": "O=C(O)c1cc2ccccc2c2c1C(=O)c1ccccc1-2", "Unit Info": "%", "growth inhibition": -4}
{"Compound": "COc1cc(C2SCC(=O)N2c2ccc(-c3ccc(-n4c(-c5ccccc5)nc5ccccc5c4=O)cc3)cc2)ccc1O (stereo not drawn)", "Unit Info": "%", "growth inhibition": -2}
{"Compound": "CCC(C)OC(=O)Nc1ccc(C)c(NC(=O)OC(C)CC)c1 (stereo not drawn)", "Unit Info": "%", "growth inhibition": -3}
{"Compound": "Oc1ccc(SCc2ccc(NCc3ccccc3)cc2)cc1", "Unit Info": "%", "growth inhibition": -32}
{"Compound": "CCC(C)(C)c1ccc(Oc2cccc(C(=O)O)c2)cc1", "Unit Info": "%", "growth inhibition": -1}
{"Compound": "CCOC(=O)C(Br)C(Br)c1ccccc1Cl (stereo not drawn)", "Unit Info": "%", "growth inhibition": -4}
{"Compound": "CCC(=O)c1cc(C(=O)C(=S)SC)cc(C(=O)C(=S)SC)c1", "Unit Info": "%", "growth inhibition": -2}
{"Compound": "CCN(CC)Cc1cc(Nc2c3ccccc3nc3c2[nH]c2ccccc23)cc(CN(CC)CC)c1O", "Unit Info": "%", "growth inhibition": 1}
{"Compound": "CCCOC(=O)C(F)C(Br)C(=O)OCCC (stereo not drawn)", "Unit Info": "%", "growth inhibition": 42}
{"Compound": "CCOC(=O)/C(=C\\c1ccc(C#N)cc1)C(C)=O", "Unit Info": "%", "growth inhibition": -15}
{"Compound": "COC1CCC(O)C(/C=C/[N+](=O)[O-])C1 (stereo not drawn)", "Unit Info": "%", "growth inhibition": 3}
{"Compound": "Clc1ccc(NCNC2Nc3ccccc3N2)cc1Cl", "Unit Info": "%", "growth inhibition": 2}
{"Compound": "CCOC(=O)c1[nH]cc(C)c1-c1cccn1-c1ccc(Cl)cc1[N+](=O)[O-]", "Unit Info": "%", "growth inhibition": 16}
{"Compound": "CCCCOC(=O)Nc1ccc(C)c(NC(=O)OCCCC)c1", "Unit Info": "%", "growth inhibition": -6}
{"Compound": "Oc1cccc2cc(Cl)cnc12", "Unit Info": "%", "growth inhibition": -28}
{"Compound": "Cc1ccc(NC(=O)/C(CC2N=c3c(ccc4c(O)c5ccccc5c(O)c34)=NC2O)=N/NC(C)(C)C)cc1 (stereo not drawn)", "Unit Info": "%", "growth inhibition": -19}
{"Compound": "CCOC(=O)C(C(=O)OCC)=P(c1ccccc1)(c1ccccc1)c1ccccc1", "Unit Info": "%", "growth inhibition": 0}
{"Compound": "Cc1cccc(C(C)(C)C)c1NC(=O)C(C#N)C1=C(Cl)C(=O)c2ccccc2C1=O (stereo not drawn)", "Unit Info": "%", "growth inhibition": -10}
{"Compound": "O=c1ssc(=Nc2ccccc2)n1-c1ccccc1", "Unit Info": "%", "growth inhibition": -3}
{"Compound": "COc1cc(/C=C2\\NC(=O)N(/C=C3\\C(=O)Oc4ccccc4C3=O)C2=O)ccc1O", "Unit Info": "%", "growth inhibition": 2}
{"Compound": "c1ccc2cc(NCNc3ccc4ccccc4c3)ccc2c1", "Unit Info": "%", "growth inhibition": 2}
{"Compound": "CC(C)CN(CC(C)C)C(=O)c1ccc(Cl)c(Cl)c1", "Unit Info": "%", "growth inhibition": -3}
{"Compound": "CCCC(O)C1CC(C(C)C)CCC1C (stereo not drawn)", "Unit Info": "%", "growth inhibition": -1}
{"Compound": "C=C1CCC(O)C/C1=C/C=C1\\CCCC2(C)C1CCC2C(C)CCCC(C)C (stereo not drawn)", "Unit Info": "%", "growth inhibition": -26}
{"Compound": "CCCCCCOC(=O)NCCOC(=O)Nc1ccccc1", "Unit Info": "%", "growth inhibition": 1}
{"Compound": "O=[N+]([O-])c1ccc2c(c1)/C(=N/N=C1c3ccccc3Cc3ccccc31)c1cc([N+](=O)[O-])cc([N+](=O)[O-])c1-2", "Unit Info": "%", "growth inhibition": -19}
{"Compound": "c1ccc2[nH]c(-c3cscn3)nc2c1", "Unit Info": "%", "growth inhibition": -1}
{"Compound": "Cc1c2cc[n+](Cc3ccc(I)cc3)cc2c(C)c2c1[nH]c1ccccc12", "Unit Info": "%", "growth inhibition": 10}
{"Compound": "CCOC1=C/C(=N\\Nc2ccc([N+](=O)[O-])cc2)CCC1", "Unit Info": "%", "growth inhibition": 0}
{"Compound": "CC(C)(C)c1ccc(NS(=O)(=O)c2ccc(N)cc2)cc1", "Unit Info": "%", "growth inhibition": 1}
{"Compound": "Cc1ccc(NCCNCCO)c2c(=O)c3cc(O)ccc3sc12", "Unit Info": "%", "growth inhibition": 10}
